- tested target: Human CARM1 (PRMT4) (Homo sapiens, UniProt Q86X55)
- Construct: Flag-CARM1-His was eluted with 200 ug/ml FLAG peptide in buffer A
- Sequence (Q86X55 other isoform, or with tags, fused parts or gaps): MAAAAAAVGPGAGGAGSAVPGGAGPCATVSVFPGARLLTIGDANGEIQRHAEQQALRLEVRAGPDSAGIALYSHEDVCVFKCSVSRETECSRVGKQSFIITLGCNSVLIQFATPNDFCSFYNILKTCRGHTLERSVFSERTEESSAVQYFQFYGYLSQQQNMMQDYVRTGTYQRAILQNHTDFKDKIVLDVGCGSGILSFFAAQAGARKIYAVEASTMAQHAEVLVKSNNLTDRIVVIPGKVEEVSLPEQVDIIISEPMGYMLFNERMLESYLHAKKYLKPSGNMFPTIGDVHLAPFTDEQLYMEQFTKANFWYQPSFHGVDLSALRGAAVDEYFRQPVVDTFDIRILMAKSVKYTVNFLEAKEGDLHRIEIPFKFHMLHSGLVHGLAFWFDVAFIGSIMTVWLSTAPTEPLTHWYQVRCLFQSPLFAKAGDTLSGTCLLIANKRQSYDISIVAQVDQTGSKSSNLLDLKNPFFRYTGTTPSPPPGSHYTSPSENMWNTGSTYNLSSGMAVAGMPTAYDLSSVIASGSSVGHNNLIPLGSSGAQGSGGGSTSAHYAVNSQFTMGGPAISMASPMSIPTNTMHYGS
- experiment notes: CARM1 enzyme assay on peptide substrate (3H-SAM Flashplate)
- assay setup: CARM1 0.25 nM, 3H-SAM 30 nM, peptide 250 nM; read-out: Biochem IC50
pIC50: −log10 of the molar value.
Would you kindly list pIC50 for each of these compounds?

Ask: Annotate the compound CNCC(O)COc1cccc(-c2nc(N3CCOCC3)c3cnn(C(C)C)c3n2)c1 (centres unmarked) with its measured pIC50.
Reply: > 7.00

Ask: Annotate the compound CNCC(O)COc1cccc(-c2cc(N(C)C3CCOCC3)nc(N3CCOCC3)n2)c1 (centres unmarked) with its measured pIC50.
Reply: > 7.00

Ask: Annotate the compound "CC(C)n1ncc2c(N3CCOCC3)cc(-c3cccc(OC[C@H](O)CN)c3)nc21" with its measured pIC50.
Reply: > 7.00

Ask: Annotate the compound CC(C)n1ncc2c(N3CCOCC3)nc(-c3cccc(OCC(O)CN)c3)nc21 (centres unmarked) with its measured pIC50.
Reply: > 7.00

Ask: Annotate the compound CNCC(O)COc1cccc(-c2cc(NCCCCCCNC(=O)c3ccn(C)n3)c3cnn(C(C)C)c3n2)c1 (centres unmarked) with its measured pIC50.
Reply: > 7.00

Ask: Annotate the compound CC(C)c1cnn2c(N3CCOCC3)cc(-c3cccc(OCC(O)CN)c3)nc12 (centres unmarked) with its measured pIC50.
Reply: > 7.00

Ask: Annotate the compound CNCC(O)COc1cc(OC)cc(-c2cc(Nc3cncnc3)c3cnn(C(C)C)c3n2)c1 (centres unmarked) with its measured pIC50.
Reply: > 7.00

Ask: Annotate the compound CC(C)n1ncc2c(N3CCOCC3)cc(-c3cccc(CCC(O)CN)c3)nc21 (centres unmarked) [Example 31-9] with its measured pIC50.
Reply: 6.00 to 7.00

Ask: Annotate the compound CNCC(O)COc1cccc(-c2cc(N(C)C3CCOCC3)n3ncc(C(C)(C)C)c3n2)c1 (centres unmarked) with its measured pIC50.
Reply: > 7.00

Ask: Annotate the compound CNCC(O)COc1cc(-c2cc(N3CCOCC3)c3cnn(C(C)C)c3n2)cc(C2CC2)c1 (centres unmarked) with its measured pIC50.
Reply: 6.00 to 7.00

Ask: Annotate the compound CC(C)n1ncc2c(NS(=O)(=O)N(C)C)cc(-c3cccc(OCC(O)CN)c3)nc21 (centres unmarked) with its measured pIC50.
Reply: 6.00 to 7.00

Ask: Annotate the compound "CNC[C@H](O)COc1cccc(-c2cc(N3CCOCC3)n3ncc(C(C)C)c3n2)c1" with its measured pIC50.
Reply: > 7.00

Ask: Annotate the compound CNCC(O)COc1cccc(-c2cc(NCc3c(C)cc(C)nc3OC)c3cnn(C(C)C)c3n2)c1 (centres unmarked) with its measured pIC50.
Reply: > 7.00

Ask: Annotate the compound CNCC(O)COc1cccc(-c2nc(N3CCOCC3)c3cnn(C(C)(C)C)c3n2)c1 (centres unmarked) with its measured pIC50.
Reply: > 7.00

Ask: Annotate the compound CNCC(O)COc1cccc(-c2cc(N(C)Cc3ccccn3)c3cnn(C(C)C)c3n2)c1 (centres unmarked) with its measured pIC50.
Reply: > 7.00

Ask: Annotate the compound CNCC(O)COc1cc(OC)cc(-c2cc(N3CCC(O)CC3)n3ncc(C(C)C)c3n2)c1 (centres unmarked) with its measured pIC50.
Reply: 6.00 to 7.00

Ask: Annotate the compound COc1cc(OCC(O)CN)cc(-c2cc(N3CCOCC3)c3cnn(C(C)C)c3n2)c1 (centres unmarked) with its measured pIC50.
Reply: > 7.00

Ask: Annotate the compound CNCC(O)COc1cc(NC)cc(-c2cc(N(C)C3CCOCC3)c3cnn(C(C)C)c3n2)c1 (centres unmarked) with its measured pIC50.
Reply: > 7.00

Ask: Annotate the compound CNCC(O)COc1cc(Cl)cc(-c2cc(NC3CCOC3)n3ncc(C(C)C)c3n2)c1 (centres unmarked) with its measured pIC50.
Reply: > 7.00

Ask: Annotate the compound "CC(C)c1cnn2c(N3CCOCC3)cc(-c3cccc(OC[C@@H](O)CN)c3)nc12" with its measured pIC50.
Reply: > 7.00

Ask: Annotate the compound CNCC(O)COc1cccc(-c2cc(C(=O)NCc3c(C)cc(C)[nH]c3=O)c3cnn(C(C)C)c3n2)c1 (centres unmarked) with its measured pIC50.
Reply: > 7.00

Ask: Annotate the compound CNCC(O)COc1cc(C#N)cc(-c2cc(NC3CCOCC3)c3cnn(C(C)C)c3n2)c1 (centres unmarked) with its measured pIC50.
Reply: 6.00 to 7.00

Ask: Annotate the compound CNCC(O)COc1cccc(-c2cc(N3CCOCC3)n3ncc(C(C)C)c3n2)c1 (centres unmarked) with its measured pIC50.
Reply: 6.00 to 7.00

Ask: Annotate the compound CNCC(O)COc1cccc(-c2nc(NCc3nccs3)c3cnn(C4CC4)c3n2)c1 (centres unmarked) with its measured pIC50.
Reply: 6.00 to 7.00

Ask: Annotate the compound CCN(c1cc(-c2cc(OC)cc(OCC(O)CN)c2)nc2c(C(C)C)cnn12)C1CCOCC1 (centres unmarked) with its measured pIC50.
Reply: > 7.00

Ask: Annotate the compound CNCC(O)COc1cccc(-c2cc(NC3CCOCC3)c3c(C#N)nn(C(C)C)c3n2)c1 (centres unmarked) with its measured pIC50.
Reply: 6.00 to 7.00

Ask: Annotate the compound CNCC(O)COc1cc(OC)cc(-c2cc(N3CCOCC3)c3cnn(C(C)C)c3n2)c1 (centres unmarked) with its measured pIC50.
Reply: > 7.00

Ask: Annotate the compound CNCC(O)COc1cc(OC)cc(-c2cc(N(C)C3CCOCC3)n3ncc(C4CC4)c3n2)c1 (centres unmarked) [Example 2-9] with its measured pIC50.
Reply: > 7.00

Ask: Annotate the compound "CC(C)n1ncc2c(N3CCOCC3)cc(-c3cc(OC[C@H](O)CN)cc(OC[C@H](O)CN)c3)nc21" with its measured pIC50.
Reply: 6.00 to 7.00

Ask: Annotate the compound CN(c1cc(-c2cccc(OCC(O)CN)c2)nc2c(C(C)(C)C)cnn12)C1CCOCC1 (centres unmarked) with its measured pIC50.
Reply: 6.00 to 7.00

Ask: Annotate the compound CNCC(O)COc1cccc(-c2cc(N[C@H]3CCOC3)n3ncc(C(C)C)c3n2)c1 (some centres unmarked) with its measured pIC50.
Reply: > 7.00

Ask: Annotate the compound CC(C)n1ncc2c(N3CCOCC3)cc(-c3cccc(SCC(O)CN)c3)nc21 (centres unmarked) with its measured pIC50.
Reply: 6.00 to 7.00
